tested on: RXF 393; experiment: NCI tumour cell line growth inhibition, 48 h
Active and inactive are the calls of the source. No stated cut-off is given here; in the data, active = GI50 up to about 1.1 µM and inactive = higher.
API: response.call in 1.0 (active), 0.0 (inactive)

compound	classAssignment
COc1ccc(-c2c(-c3ccccc3)c(C)nc3nc(SC)nc(SC)c23)cc1OC	0.0
N/C(S)=N/N=C/c1ccc(N)cn1	0.0

Hi team, can someone confirm the assay call for CCc1cc2c(oc3c4ccccc4ccc23)c(=O)[nH]1 ?
0.0

Per the records of this test, what outcome belongs to CC(=O)C(/N=N\C1CCC(S(=O)(=O)NB2N=CS2)CC1)C(=O)Nc1ccccc1C (stereo not given) ?
0.0

Could you kindly confirm the outcome this assay logged for COc1ccc(-c2c3c(n(C4OC(COC(C)=O)C(OC(C)=O)C(OC(C)=O)C4OC(C)=O)c(=S)c2C#N)CCC3)cc1 (stereo not given) ?
0.0

Hello, I am checking results. What call was entered for COC(=O)C1=COC2OC3CC1C2C(C)O3 (stereo not given) ?
0.0

Assay outcome for CCOC(=O)c1ccc(NCc2ccc3oc(=O)c(-c4ccccc4)nc3c2)cc1 : what was it?
0.0

So what was the verdict on CC[C@H](C)C(=O)O[C@H]1C[C@@H](C)C=C2C=C[C@H](C)[C@H](CC[C@@H]3C[C@@H](O)CC(=O)O3)[C@H]21 in this test?
0.0

I would be grateful if you could indicate the recorded call for COc1ccc(-c2cc(=O)c3c(O)cc(O)cc3o2)c(OC)c1OC .
0.0
